# Tested Target: NEK7(h) (Homo sapiens)
# Construct: purchased Millipore
# Sequence (Q8TDX7 whole entry): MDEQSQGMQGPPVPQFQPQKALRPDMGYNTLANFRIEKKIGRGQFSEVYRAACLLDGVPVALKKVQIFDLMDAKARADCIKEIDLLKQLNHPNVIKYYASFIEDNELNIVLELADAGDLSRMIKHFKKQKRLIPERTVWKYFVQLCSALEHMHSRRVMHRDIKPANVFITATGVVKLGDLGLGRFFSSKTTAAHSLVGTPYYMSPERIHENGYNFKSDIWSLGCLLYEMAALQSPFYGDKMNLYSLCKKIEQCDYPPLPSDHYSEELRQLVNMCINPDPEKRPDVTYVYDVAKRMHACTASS
# Experimental Details: Kinase Profiling Assay
# Type: biochemical
# Reported Conditions: peptide 100 μM

Input Sequence	% activity (%)
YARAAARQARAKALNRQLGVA (Mammal) [MMI-0200]	96
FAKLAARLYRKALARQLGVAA [MMI-0300]	84
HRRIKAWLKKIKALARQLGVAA (Mammal) [MMI-0500]	89
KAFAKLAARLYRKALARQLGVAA [MMI-0400]	87

----------
# Tested Target: EphB2(h) (Homo sapiens)
# Sequence (P29323 19-1055): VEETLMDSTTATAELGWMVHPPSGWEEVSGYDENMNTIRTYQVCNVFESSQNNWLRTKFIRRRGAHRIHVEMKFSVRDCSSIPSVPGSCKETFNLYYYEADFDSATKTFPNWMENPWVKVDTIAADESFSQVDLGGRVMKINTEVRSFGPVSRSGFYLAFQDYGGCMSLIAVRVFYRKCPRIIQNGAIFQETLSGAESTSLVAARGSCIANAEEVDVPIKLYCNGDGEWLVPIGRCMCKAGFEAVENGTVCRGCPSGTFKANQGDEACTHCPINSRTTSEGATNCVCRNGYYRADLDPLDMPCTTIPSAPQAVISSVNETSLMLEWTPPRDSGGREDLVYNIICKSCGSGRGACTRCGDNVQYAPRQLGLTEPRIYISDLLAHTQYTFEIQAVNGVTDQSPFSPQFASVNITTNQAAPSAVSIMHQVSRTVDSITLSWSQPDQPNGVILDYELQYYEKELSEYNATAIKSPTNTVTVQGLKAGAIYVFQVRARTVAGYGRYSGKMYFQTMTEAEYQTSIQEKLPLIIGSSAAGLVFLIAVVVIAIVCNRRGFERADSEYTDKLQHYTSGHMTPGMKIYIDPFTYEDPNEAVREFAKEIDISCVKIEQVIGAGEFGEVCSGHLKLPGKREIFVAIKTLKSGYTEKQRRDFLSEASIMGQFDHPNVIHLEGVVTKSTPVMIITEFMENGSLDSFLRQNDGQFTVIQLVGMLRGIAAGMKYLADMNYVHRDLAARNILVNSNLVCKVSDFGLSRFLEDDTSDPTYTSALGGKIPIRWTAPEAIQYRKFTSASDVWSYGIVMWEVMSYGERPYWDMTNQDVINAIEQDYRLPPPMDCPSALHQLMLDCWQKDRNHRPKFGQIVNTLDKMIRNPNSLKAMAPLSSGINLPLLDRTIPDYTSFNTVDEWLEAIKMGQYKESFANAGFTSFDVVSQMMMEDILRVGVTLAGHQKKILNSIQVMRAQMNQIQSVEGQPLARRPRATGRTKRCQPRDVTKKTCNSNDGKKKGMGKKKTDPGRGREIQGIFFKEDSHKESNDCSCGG
# Experimental Details: Kinase Profiling Assay
# Format: biochemical
# Reported Conditions: peptide 100 μM
No end group written: not given here.

Input Sequence	% activity
YARAAARQARAKALARQLGVAA [MMI-0100]	68%
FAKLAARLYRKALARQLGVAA [MMI-0300]	18%
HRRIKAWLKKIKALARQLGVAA (Mammal) [MMI-0500]	70%
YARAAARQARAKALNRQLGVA (Mammal) [MMI-0200]	128%
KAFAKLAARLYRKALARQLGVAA [MMI-0400]	22%
